test: Quantitative High-Throughput drug screen in 47 multiple myeloma cell lines against the NCATS MIPE library collection: PE2_PLB cell viability assay (AID 1919869); conditions: PE2_PLB myeloma cells viability, ATP luminescence, 48 h; series mostly up to 45.8 µM; also: nearly all actives have a fitted effect of over 35% in size; also: potency is read from the fitted curve at half-maximal effect
Inconclusive results are not listed. Active and inactive are the calls of the source. Calls follow the shape of the dose curve; as a rule, active = well fitted cell-killing curve with a large enough effect; inconclusive = small, poorly fitted or top-dose-only effect, or effect the other way; inactive = no such curve, though single readings can be large or run the other way.
RESULT_TYPE: Potency

{"COMPOUND": "COCCNCCCn1c(C(=O)CF)c(-c2ccc(C)cc2)c2c(N)ncnc21", "RESULT_TYPE": "Potency", "OBSERVED_RESULT": "14.8 µM (active)"}
{"COMPOUND": "CCn1c(-c2nonc2N)nc2cnc(Oc3cccc(NC(=O)c4ccc(OCCN5CCOCC5)cc4)c3)cc21", "RESULT_TYPE": "Potency", "OBSERVED_RESULT": "10.5 µM (active)"}
{"COMPOUND": "Cc1n[nH]c(C)c1Cc1sc2c(c1C(=O)N1C[C@H](O)CO1)c(=O)n(C)c(=O)n2CC(C)C", "RESULT_TYPE": "Potency", "OBSERVED_RESULT": "0.235 µM (active)"}
{"COMPOUND": "Clc1cccc(Cl)c1NC1=NCCN1", "RESULT_TYPE": "Potency", "OBSERVED_RESULT": "inactive"}

Now look at this one.
Q. What does the data say about its Potency? Entry: `CO[C@@H]1[C@H](N(C)C(=O)c2ccccc2)C[C@H]2O[C@]1(C)n1c3ccccc3c3c4c(c5c6ccccc6n2c5c31)C(=O)NC4`
A. 0.59 µM (active)
